Tested on: MNFS-60
TEST_DESCRIPTION: anti-proliferative effect on M-CSF dependent cell line MNFS-60
CONDITION: read-out: EC50 anti-proliferative effect, MNFS-60, M-CSF dependent proliferation
pEC50: −log10 of the molar value.
RESULT_TYPE: pEC50

Give recorded pEC50. CNC(=O)c1cc(Oc2ccc3nc(N[C@@H]4CCCC[C@H]4O)sc3c2)ccn1
> 7.15

----------
System: BAF3-PDGFRβ
TEST_DESCRIPTION: kinase transfected BaF3 proliferation assay, BAF3-PDGFRβ
CONDITION: Mus musculus, BaF3, read-out: Cellular EC50 BAF3-PDGFRβ
RESULT_TYPE: EC50

Give recorded EC50. CNC(=O)c1cc(Oc2ccc3nc(N[C@@H]4CCCC[C@H]4O)sc3c2)ccn1
≥ 2000 nM

----------
System: all other BaF3 cell lines
TEST_DESCRIPTION: kinase transfected BaF3 proliferation assays, all other BaF3 cell lines
CONDITION: Mus musculus, BaF3, read-out: Cellular EC50 all other BaF3 cell lines
RESULT_TYPE: EC50

Give recorded EC50. CNC(=O)c1cc(Oc2ccc3nc(N[C@@H]4CCCC[C@H]4O)sc3c2)ccn1
> 10 µM
